- tested.system: recombinant O.lotOBP6
- assay.info: Fluorescence competitive binding assay with 1-NPN probe
- measurement.setup: O.lotOBP6/1-NPN complex 2 μM, 1× PBS pH 7.2~7.4, room temperature, triplicates; read-out: IC50 (concentration of ligand halving the initial fluorescence value of 1-NPN)
For each entry below, report its pIC50 value.
Numbers only, as −log10 of the molar value.

Some solved entries appear below for comparison.
compound	tested.system	endpoint.value
CCCCCCCCC=O [Nonanal]	recombinant O.lotOBP6	5.85
COc1ccc(C=O)cc1 [p-Anisaldehyde]	recombinant O.lotOBP6	5.34
O=Cc1ccccc1O [Salicylaldehyde]	recombinant O.lotOBP6	5.96
CCCCC(CC)CO (stereo not shown) [2-Ethyl-1-hexanol]	recombinant O.lotOBP6	5.42

Please state pIC50 for every compound in the list that follows.
1. CCCCCCCCCCCCC [Tridecane]
2. CC12CCC(CC1)C(C)(C)O2 [Eucalyptol]
3. Cc1cccc(C)c1 [m-Xylene]

## Output
1: 5.59; 2: 5.69; 3: 5.08

Please state pIC50 for every compound in the list that follows.
1. CC/C=C\CCOC(=O)CCC [(Z)-3-Hexenyl butyrate]
2. O=Cc1ccccc1 [Benzaldehyde]

## Output
1: 5.25; 2: 5.79

---

For each entry below, report its IC50 value.
- tested.system: recombinant O.lotOBP6
- assay.info: Fluorescence competitive binding assay with 1-NPN probe
- measurement.setup: O.lotOBP6/1-NPN complex 2 μM, 1× PBS pH 7.2~7.4, room temperature, triplicates; read-out: IC50 (concentration of ligand halving the initial fluorescence value of 1-NPN)
Answers are plain numbers, in µM.

compound	tested.system	unit.label	IC50
C=CC(C)(O)CCC=C(C)C (stereo not drawn)	recombinant O.lotOBP6	µM	6.92

Now examine the next entry.
## Input What value of IC50 has been recorded for this entry: C=C(C)C1CCC(C)C(=O)C1 (stereo not drawn)
## Output 0.34

---

- tested.system: recombinant O.lotOBP6
- assay.info: Fluorescence competitive binding assay with 1-NPN probe
- measurement.setup: 2 μM protein titrated with 1-NPN 0.25~8 μM, Scatchard equation; read-out: Dissociation constant of recombinant O.lotOBP6 protein to 1-NPN
assay.readout: Kd
Field: value (include unit after the number)

## Input What value of Kd has been recorded for this entry: c1ccc(Nc2cccc3ccccc23)cc1 [1-NPN, N-phenyl-1-naphthylamine, reference compound]
## Output 1050 nM

---

- tested.system: recombinant O.lotOBP6
- assay.info: Fluorescence competitive binding assay with 1-NPN probe
- Parameters: species or system Odontothrips loti
- measurement.setup: O.lotOBP6/1-NPN complex 2 μM, calculated from IC50; read-out: Ki (dissociation constant, Ki = IC50/(1 + [1-NPN]/K1-NPN))
- Description: Fluorescence was measured on a F-7000 fluorescence spectrophotometer (Hitachi, Tokyo, Japan) at room temperature with a 1 cm light path quartz cuvette and 10 nm slits for both excitation and emission. The fluorescent probe N-phenyl-1-naphthylamine (1-NPN) was excited at 337 nm, and emission was recorded between 370 and 520 nm. The pure protein was dissolved with 1× PBS (pH 7.2~7.4) at a final concentration of 2 μM. The ligands and 1-NPN were dissolved in methanol at the concentration of 1 mM. […]
assay.readout: pKi
Numbers only, as −log10 of the molar value.

Some solved entries appear below for comparison.
compound	assay.readout	endpoint.value
CCCCC(CC)CO (centres unmarked)	pKi	5.80
CCCCCCCCC=O	pKi	6.24
O=Cc1ccccc1O	pKi	6.35

Please state pKi for every compound in the list that follows.
1. O=Cc1ccccc1
2. COc1ccc(C=O)cc1
3. C=C(C)C1CCC(C)C(=O)C1 (centres unmarked)
4. CC/C=C\CCOC(=O)CCC [(Z)-3-Hexenyl butyrate]
5. CCCCCCCCCCCCC
6. CC12CCC(CC1)C(C)(C)O2
7. Cc1cccc(C)c1
8. C=CC(C)(O)CCC=C(C)C (centres unmarked)

## Output
6.17
5.72
6.85
5.64
5.97
6.07
5.46
5.54
